# System: HUVEC/MSC spheroids viability
# experimental.details: Human HUVEC/MSC cell line growth inhibition [KRAS2];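 also: percent of DMSO vehicle control luminescence so 100% = untreated viability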
# condition.info: second compound 0.1 µM; first compound 0.01 µM; hits give low values
Attribute: viability, T/C
Respond numerically; units are % and should not be typed.

CCN1CCN(Cc2ccc(Nc3ncc(F)c(-c4cc(F)c5nc(C)n(C(C)C)c5c4)n3)nc2)CC1 + COc1cc2nc(C)nc(NC(C)c3cc(N)cc(C(F)(F)F)c3)c2cc1OC1CCOC1 ... 90.9
Cn1ncnc1[C@H]1c2n[nH]c(=O)c3cc(F)cc(c23)N[C@@H]1c1ccc(F)cc1 + COc1cc2nc(C)nc(NC(C)c3cc(N)cc(C(F)(F)F)c3)c2cc1OC1CCOC1 ... 117
CCN1CCN(Cc2ccc(Nc3ncc(F)c(-c4cc(F)c5nc(C)n(C(C)C)c5c4)n3)nc2)CC1 + C=CC(=O)N1CCN(c2nc(=O)n(-c3c(C)ccnc3C(C)C)c3nc(-c4c(O)cccc4F)c(F)cc23)C(C)C1 ... 102
Cn1ncnc1[C@H]1c2n[nH]c(=O)c3cc(F)cc(c23)N[C@@H]1c1ccc(F)cc1 + C=CC(=O)N1CCN(c2nc(=O)n(-c3c(C)ccnc3C(C)C)c3nc(-c4c(O)cccc4F)c(F)cc23)C(C)C1 ... 79.5

Shift focus to the following entry.
Input CCN1CCN(Cc2ccc(Nc3ncc(F)c(-c4cc(F)c5nc(C)n(C(C)C)c5c4)n3)nc2)CC1 + CC1OCC2(CCN(c3cnc(Sc4ccnc(N)c4Cl)c(N)n3)CC2)C1N , output reported viability, T/C.
105

----------
Attribute: viability, T/C
# Test system: HUVEC/MSC spheroids viability
# experimental.details: Human HUVEC/MSC cell line growth inhibition [KRAS2];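 also: percent of DMSO vehicle control luminescence so 100% = untreated viability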
# condition.info: second compound 0.03 µM; first compound 3.16 µM; hits give low values
Respond numerically; units are % and should not be typed.

Please review the entries below; each comes with its answer.
O=C(c1cc(Cc2n[nH]c(=O)c3ccccc23)ccc1F)N1CCN(C(=O)C2CC2)CC1 + C=CC(=O)N1CCN(c2nc(OCC3CCCN3C)nc3c2CCN(c2cccc4cccc(C)c24)C3)CC1CC#N ... 103
CC1OCC2(CCN(c3cnc(Sc4ccnc(N)c4Cl)c(N)n3)CC2)C1N (stereo not drawn) + C=CC(=O)N1CCN(c2nc(OCC3CCCN3C)nc3c2CCN(c2cccc4cccc(C)c24)C3)CC1CC#N ... 66

Shift focus to the following entry.
Input CC(C)NCC(C(=O)N1CCN(c2ncnc3c2C(C)CC3O)CC1)c1ccc(Cl)cc1 (stereo not drawn) + C=CC(=O)N1CCN(c2nc(OCC3CCCN3C)nc3c2CCN(c2cccc4cccc(C)c24)C3)CC1CC#N , output reported viability, T/C.
65.4

----------
# Test system: HUVEC/MSC spheroids viability
# experimental.details: Human HUVEC/MSC cell line growth inhibition [KRAS2];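 also: percent of DMSO vehicle control luminescence so 100% = untreated viability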
# condition.info: second compound 0.0316 µM; first compound 0.0949 µM; hits give low values
Attribute: viability, T/C
Respond numerically; units are % and should not be typed.

Please review the entries below; each comes with its answer.
CC(=O)OC12COC1CC(O)C1(C)C(=O)C(O)C3=C(C)C(OC(=O)C(O)C(NC(=O)OC(C)(C)C)c4ccccc4)CC(O)(C(OC(=O)c4ccccc4)C21)C3(C)C (stereo not drawn) + CNCc1ccccc1-c1csc(C(C)Nc2nc(C)nc3cc(OC)c(OC)cc23)c1 ... 49.7
CC1COCCN1c1cc(-c2ccnn2C)c2ccnc(-c3ccn[nH]3)c2n1 (stereo not drawn) + C=CC(=O)N1CCN(c2nc(=O)n(-c3c(C)ccnc3C(C)C)c3nc(-c4c(O)cccc4F)c(F)cc23)C(C)C1 ... 75
CC1COCCN1c1cc(-c2ccnn2C)c2ccnc(-c3ccn[nH]3)c2n1 (stereo not drawn) + CNCc1ccccc1-c1csc(C(C)Nc2nc(C)nc3cc(OC)c(OC)cc23)c1 ... 87
CC1COCCN1c1cc(-c2ccnn2C)c2ccnc(-c3ccn[nH]3)c2n1 (stereo not drawn) + COc1cc2nc(C)nc(NC(C)c3cc(N)cc(C(F)(F)F)c3)c2cc1OC1CCOC1 ... 86.8

Input CC(=O)OC12COC1CC(O)C1(C)C(=O)C(O)C3=C(C)C(OC(=O)C(O)C(NC(=O)OC(C)(C)C)c4ccccc4)CC(O)(C(OC(=O)c4ccccc4)C21)C3(C)C (stereo not drawn) + C=CC(=O)N1CCN(c2nc(=O)n(-c3c(C)ccnc3C(C)C)c3nc(-c4c(O)cccc4F)c(F)cc23)C(C)C1 , output reported viability, T/C.
47.2

Input CC(=O)OC12COC1CC(O)C1(C)C(=O)C(O)C3=C(C)C(OC(=O)C(O)C(NC(=O)OC(C)(C)C)c4ccccc4)CC(O)(C(OC(=O)c4ccccc4)C21)C3(C)C (stereo not drawn) + CC1OCC2(CCN(c3cnc(Sc4ccnc(N)c4Cl)c(N)n3)CC2)C1N , output reported viability, T/C.
67.3

Input CC(=O)OC12COC1CC(O)C1(C)C(=O)C(O)C3=C(C)C(OC(=O)C(O)C(NC(=O)OC(C)(C)C)c4ccccc4)CC(O)(C(OC(=O)c4ccccc4)C21)C3(C)C (stereo not drawn) + COc1cc2nc(C)nc(NC(C)c3cc(N)cc(C(F)(F)F)c3)c2cc1OC1CCOC1 , output reported viability, T/C.
53

Input CC1COCCN1c1cc(-c2ccnn2C)c2ccnc(-c3ccn[nH]3)c2n1 (stereo not drawn) + CC1OCC2(CCN(c3cnc(Sc4ccnc(N)c4Cl)c(N)n3)CC2)C1N , output reported viability, T/C.
82.6
